Target: UniProt:Q04759
Sequence (Q04759 whole entry): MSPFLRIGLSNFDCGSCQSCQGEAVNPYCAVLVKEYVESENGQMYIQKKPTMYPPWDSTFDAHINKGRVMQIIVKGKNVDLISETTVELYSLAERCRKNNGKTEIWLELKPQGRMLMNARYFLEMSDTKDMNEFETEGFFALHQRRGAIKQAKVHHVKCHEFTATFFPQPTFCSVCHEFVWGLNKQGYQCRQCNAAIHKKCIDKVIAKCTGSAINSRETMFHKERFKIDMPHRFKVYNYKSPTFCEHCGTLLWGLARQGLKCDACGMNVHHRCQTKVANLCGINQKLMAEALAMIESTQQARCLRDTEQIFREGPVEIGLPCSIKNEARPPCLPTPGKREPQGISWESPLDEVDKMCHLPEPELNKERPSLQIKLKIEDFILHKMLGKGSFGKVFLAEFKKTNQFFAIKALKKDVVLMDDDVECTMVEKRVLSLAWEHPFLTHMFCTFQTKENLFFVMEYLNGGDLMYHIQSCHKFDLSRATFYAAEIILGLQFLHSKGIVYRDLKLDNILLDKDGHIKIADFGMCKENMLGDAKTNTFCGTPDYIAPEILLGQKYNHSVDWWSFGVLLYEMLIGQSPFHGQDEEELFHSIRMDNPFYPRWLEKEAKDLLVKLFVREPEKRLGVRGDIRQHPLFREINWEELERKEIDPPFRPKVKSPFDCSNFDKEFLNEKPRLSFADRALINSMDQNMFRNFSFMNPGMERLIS
Experiment: PKC theta kinase inhibition, coupled-enzyme NADH absorbance assay (Ki)
Type: biochemical
Settings: 240 μM ATP, 18 nM PKC theta, 30° C.; read-out: Ki PKC theta
Description: An assay buffer solution was prepared which consisted of 100 mM HEPES (pH 7.5), 10 mM MgCl2, 25 mM NaCl, 0.1 mM EDTA and 0.01% Brij. […] To 60 μL of this enzyme buffer, in a 384 well plate, was added 2 μL of VRT stock solution in DMSO. The mixture was allowed to equilibrate for 10 mins at 30° C. […] Ki values were calculated from initial rate data by non-linear regression using the Prism software package (Prism 4.0a, Graphpad Software, San Diego, Calif.).
METRIC: Ki

| MOLECULE | METRIC | MEASURED_VALUE |
| --- | --- | --- |
| NCC1(c2cccc(-c3ccnc4[nH]nc(Cl)c34)c2)CCOCC1 [Compound 206] | Ki | < 50 nM |
| CC(C)(C#N)c1cc(-c2ccnc3[nH]ncc23)cc(N2CCC2)c1 [Compound 11] | Ki | < 500 nM |
| CC(C)(C#N)c1cc(NC2CCNCC2)cc(-c2ccnc3[nH]ncc23)c1 [Compound 20] | Ki | < 500 nM |
| CC(CN)(Cc1ccncc1)c1cccc(-c2ccnc3[nH]ncc23)c1 (centres unmarked) [Compound 172] | Ki | < 50 nM |
| CCC(C)(C#N)c1cc(CCCF)cc(-c2ccnc3[nH]ncc23)c1 (centres unmarked) [Compound 107] | Ki | < 500 nM |

According to the records, this molecule CC[C@@](C)(CN)c1cccc(-c2ccnc3[nH]ncc23)c1 [Compound 152] displays Ki of < 50 nM

According to the records, this molecule CC(C)(CN)c1cccc(-c2ccnc3[nH]ncc23)c1 [Compound 31] displays Ki of < 50 nM

According to the records, this molecule CC(F)c1cc(-c2ccnc3[nH]ncc23)cc(C(C)(C)C#N)c1 (centres unmarked) [Compound 88] displays Ki of < 50 nM

According to the records, this molecule CC(C)(C#N)c1cc(Br)cc(-c2ccnc3[nH]ncc23)c1 [Compound 18] displays Ki of < 50 nM

According to the records, this molecule CCc1cc(-c2ccnc3[nH]nc(C(F)(F)F)c23)cc(C(C)(CC)CN)c1 (centres unmarked) [Compound 271] displays Ki of < 50 nM

According to the records, this molecule CCC(C)(C#N)c1cc(CC(F)(F)F)cc(-c2ccnc3[nH]ncc23)c1 (centres unmarked) [Compound 113] displays Ki of < 500 nM

According to the records, this molecule N#CC1(c2cc(-c3ccnc4[nH]nc(C(F)(F)F)c34)cc(C(F)(F)CN)c2)CC1 [Compound 311] displays Ki of < 50 nM

According to the records, this molecule CCC(C)(C#N)c1cc(-c2ccnc3[nH]ncc23)cc(C(F)(F)CCC2CCCCC2)c1 (centres unmarked) [Compound 118] displays Ki of > 700 nM

According to the records, this molecule OCC1(c2cccc(-c3ccnc4[nH]nc(C(F)(F)F)c34)c2)CC1 [Compound 290] displays Ki of < 50 nM

###

Readings of pKi for the listed molecules
target: PKC alpha kinase (Homo sapiens); experiment: PKC alpha kinase inhibition, coupled-enzyme NADH absorbance assay (Ki); type: biochemical; settings: 130 μM ATP, 4.5 nM PKC alpha, 30° C.; read-out: Ki PKC alpha
pKi: −log10 of the molar value.

| MOLECULE | SUBJECT_OF_TEST | pKi |
| --- | --- | --- |
| N#CC1(c2cccc(-c3ccnc4[nH]ncc34)c2)CC(F)(F)C1 [Compound 226] | PKC alpha kinase (Homo sapiens) | < 5.92 |
| CC[C@@](C)(CN)c1cccc(-c2ccnc3[nH]ncc23)c1 [Compound 152] | PKC alpha kinase (Homo sapiens) | > 6.30 |
| CCC(O)(c1cc(C)cc(-c2ccnc3[nH]nc(C(F)(F)F)c23)c1)C1CNC1 (stereo not drawn) [Compound 314] | PKC alpha kinase (Homo sapiens) | > 5.55 |
| Cc1cc(-c2ccnc3[nH]nc(Cl)c23)cc(C2(CN)CCOCC2)c1 [Compound 209] | PKC alpha kinase (Homo sapiens) | > 6.30 |
| CCC(C)(CN)c1cc(CC(F)(F)F)cc(-c2ccnc3[nH]ncc23)c1 (stereo not drawn) [Compound 163] | PKC alpha kinase (Homo sapiens) | < 5.92 |

According to the records, this molecule CC(CN)(Cc1cscn1)c1cccc(-c2ccnc3[nH]ncc23)c1 (stereo not drawn) [Compound 170] displays pKi of > 5.55

According to the records, this molecule NCC1(c2cccc(-c3ccnc4[nH]nc(C(F)(F)F)c34)c2)COC1 [Compound 305] displays pKi of > 5.55

According to the records, this molecule CCC(F)c1cc(-c2ccnc3[nH]ncc23)cc(C(C)(CC)CN)c1 (stereo not drawn) [Compound 158] displays pKi of > 5.55

According to the records, this molecule N#CC1(c2cc(CCCN)cc(-c3ccnc4[nH]ncc34)c2)CC1 [Compound 301] displays pKi of > 5.55

According to the records, this molecule NCC1(c2cccc(-c3ccnc4[nH]ncc34)c2)CC(F)(F)C1 [Compound 235] displays pKi of < 5.92

According to the records, this molecule CC#CCC(C)(CN)c1cc(C)cc(-c2ccnc3[nH]ncc23)c1 (stereo not drawn) [Compound 234] displays pKi of > 6.30

According to the records, this molecule C=CCC(C)(C#N)c1cccc(-c2ccnc3[nH]ncc23)c1 (stereo not drawn) [Compound 90] displays pKi of > 5.55

According to the records, this molecule CCC(C)(C#N)c1cc(CO)cc(-c2ccnc3[nH]ncc23)c1 (stereo not drawn) [Compound 121] displays pKi of < 5.92

According to the records, this molecule CC(O)c1cc(-c2ccnc3[nH]ncc23)cc(C(C)(C)CN)c1 (stereo not drawn) [Compound 39] displays pKi of < 5.55

According to the records, this molecule CCC(C)(C#N)c1cc(CC(F)(F)F)cc(-c2ccnc3[nH]ncc23)c1 (stereo not drawn) [Compound 113] displays pKi of < 5.92

According to the records, this molecule CCc1cc(-c2ccnc3[nH]nc(Cl)c23)cc(C2(CN)CCC2)c1 [Compound 211] displays pKi of > 6.30

According to the records, this molecule N#C[C@]1(c2cccc(-c3ccnc4[nH]ncc34)c2)C[C@@H](N)C1 [Compound 249] displays pKi of > 6.30

According to the records, this molecule C/C=C/c1cc(-c2ccnc3[nH]ncc23)cc(C(C)(C)C#N)c1 [Compound 54] displays pKi of < 5.55

According to the records, this molecule N#CC(CCO)c1cccc(-c2ccnc3[nH]ncc23)c1 (stereo not drawn) [Compound 224] displays pKi of < 5.92

According to the records, this molecule NCC1(c2cccc(-c3ccnc4[nH]nc(C(F)(F)F)c34)c2)CCOCC1 [Compound 214] displays pKi of > 6.30

According to the records, this molecule COc1cccc(CC(C)(CN)c2cccc(-c3ccnc4[nH]ncc34)c2)c1 (stereo not drawn) [Compound 173] displays pKi of > 6.30

According to the records, this molecule CC(C)(C#N)c1cccc(-c2ccnc3[nH]ncc23)n1 [Compound 1] displays pKi of > 6.30
